Listed here are compounds together with their documented GI50.
tested on: SK-MEL-2; assay: NCI tumour cell line growth inhibition, 48 h
Active and inactive are the calls of the source. No stated cut-off is given here; in the data, active = GI50 up to about 1.1 µM and inactive = higher.
observable: GI50

NC1CC2C3CCC2C1C3=O (stereo not given): > 100 µM (inactive)
CC1OC(OP(=O)(OCc2ccccc2)OCc2ccccc2)C(OC(=O)c2ccccc2)C(OC(=O)c2ccccc2)C1I (stereo not given): 23.8 µM (inactive)
COc1ccc(OC2OC(CO)C(OCc3ccccc3)C(OCc3ccccc3)C2OCc2ccccc2)cc1 (stereo not given): > 100 µM (inactive)
O=C(c1ccccc1)c1c2ccccn2c2cccc[n+]12: > 100 µM (inactive)
CCN(CC)c1ccc(/C=C(\C#N)c2nc(N)nc(N3N=C(C)CC3(C)C)n2)cc1: 15.6 µM (inactive)
COc1ccc(N2C(=O)C3c4[nH]c5ccc([N+](=O)[O-])cc5c4C4CCC(C(C)(C)C)CC4C3C2=O)cc1 (stereo not given): 26.1 µM (inactive)
COc1ccc(C(N)=O)c(OC)c1OCc1ccccc1: > 100 µM (inactive)
Cc1cccc2c1nc1n2C(=O)c2ccccc2-1: > 100 µM (inactive)
Cc1nnc2n1N=C(c1cc(F)c(Cl)cc1Cl)/C(=C/c1ccc(Cl)cc1)S2: 8.15 µM (inactive)
O=c1cc(/N=N/c2ccc(O)cc2)[nH]c(=O)[nH]1: > 100 µM (inactive)

###

tested on: EKVX; experiment: NCI tumour cell line growth inhibition, 48 h
Calls of active or inactive are those of the source. Rule as the data show it: active = GI50 up to about 1.1 µM and inactive = higher.
The following molecules are listed with their measured GI50 values.
observable: GI50

Oc1ccc(O)c(Sc2nnc(CCCCCCCCc3nnc(Sc4cc(O)ccc4O)o3)o2)c1: > 100 µM (inactive)
CC(=O)NC1=C(Sc2ccc(Cl)cc2)C(=O)c2ccccc2C1=O: 5.71 µM (inactive)
Cc1cccc(C)c1NC(=O)C1=NC(=S)NC(c2ccccc2)C1c1nc2ccccc2s1 (stereo unspecified): > 100 µM (inactive)
COc1ccc(N2C(=O)C(N3C(=O)C=CC3=O)C2C=O)cc1 (stereo unspecified): > 100 µM (inactive)
CCOC(=O)/C=C/[C@@H](CC)O[Si](C(C)C)(C(C)C)C(C)C: > 100 µM (inactive)
NNC(=O)CC(=O)Nc1cccc(Cl)c1: > 100 µM (inactive)

###

system: T47D; assay: NCI tumour cell line growth inhibition, 48 h
Calls of active or inactive are those of the source. Rule as the data show it: active = GI50 up to about 1.1 µM and inactive = higher.
Classes used: active, inactive

COC1=CC(=O)c2nc3ccccc3c3ccnc1c23: inactive
NNC1=NC(=O)NC(=O)C1: inactive
Cc1nc(N)c(N2CCN(S(=O)(=O)N(Cc3ccccc3)Cc3ccccc3)CC2)c(O)n1: inactive
O=C(O)c1c(-c2c3ccc(=O)cc-3oc3cc(O)ccc23)cc2ccccc2c1-c1ccccc1: inactive
COC(=O)C(Cc1c[nH]c2ccccc12)NC(=O)C(Cc1c[nH]cn1)NC(=O)C1CCC(=O)N1C(=O)OCc1ccccc1 (centres undefined): inactive
O=Cc1cc([N+](=O)[O-])no1: inactive
C=CCOC(=O)CCCCCCCCCCCCCCCOC(=O)C1=C(CCC[C@@H](C)O[Si](C)(C)C(C)(C)C)NC(=O)N2[C@H](CC3(CC/C=C\[C@H](CC)O[Si](C(C)C)(C(C)C)C(C)C)OCCO3)CC[C@H]12: inactive
CC1OC(OC2C[C@](O)(C(=O)CBr)Cc3c(O)c4c(c(O)c32)C(=O)c2ccccc2C4=O)C(F)C(O)C1O (some centres undefined): inactive
CC1=NN(c2ccccc2)C2(C1)C(Cl)C(=O)N2c1nc2ccccc2s1 (centres undefined): inactive
Clc1ccc(/N=c2\oc3ccccc3cc2-c2nc3ccccc3[nH]2)c(Cl)c1: inactive
CC(C)(O)[C@@H]1CC[C@](C)(C2[C@@H](O)C[C@@]3(C)C4C[C@H](OC5OCC(O)C(O)C5O)[C@H]5C(C)(C)[C@@H](OC6OCC(O)C(O)C6OC6OCC(O)C(O)C6O)CC[C@@]56C[C@@]46CC[C@]23C)O1 (some centres undefined): inactive
CC1=Cc2ccc(C)cc2C(=O)C1=O: inactive
N#Cc1c(/C=C/c2ccccc2)c2c([nH]c1=S)CCCCC2: inactive
CC1=C(C(=O)OC23CC4CC(CC(C4)C2)C3)C(c2ccccc2OC(F)F)C(C(=O)OC23CC4CC(CC(C4)C2)C3)=C(C)N1 (centres undefined): inactive
CC(SC(=S)N1CCOCC1)C(=O)Nc1nnc(-c2ccccc2)o1 (centres undefined): inactive
CCNCCCCNCCCCNCCCCNCCCCNCC: inactive
C=C(CCOC)CCC1CCCCC(=C)[C@H]1OC(C)=O (some centres undefined): inactive
Cc1c2cccc(Sc3ccccc3)c2c2c3c(cccc13)[S+](c1ccccc1)C2 (centres undefined): active
COc1ccc(N2C(=O)C3c4[nH]c5ccc([N+](=O)[O-])cc5c4C4CCC(C(C)(C)C)CC4C3C2=O)cc1 (centres undefined): inactive

###

The entries below are paired with their reported GI50.
system: U-251; experiment: NCI tumour cell line growth inhibition, 48 h
The source made the active and inactive calls. Cut-off read from the data, not from the text of the source: active = GI50 up to about 1.1 µM and inactive = higher.
observable: GI50

Cc1nc(N)c(-c2ccccc2)s1: > 48.5 µM (inactive)
COC(=O)N/N=C(\C)c1sc(-c2nc(C)c(/C(C)=N/NC(=O)OC)s2)nc1C: > 100 µM (inactive)
COC(=O)[C@@H]1C[C@H]([Se]c2ccccc2)CN1S(=O)(=O)c1ccc(C)cc1: 53 µM (inactive)
COC(CN(C)C(=S)Nc1cccc2ccccc12)OC: > 10 µM (inactive)
COc1ccc(CC2C3=C(CCCC3)CCN2C)cc1 (centres undefined): > 100 µM (inactive)
O=C1C(=O)N(c2ccc(Cl)c(Cl)c2)C(=O)C(=O)C1c1nc2ccccc2s1: > 100 µM (inactive)
CC(C)=CCC[C@@H](C)C1=C(Nc2ccccc2)C(=O)C(C)=C(O)C1=O: 2.74 µM (inactive)
CC(C)(O)[C@@H]1CC[C@](C)(C2[C@@H](O)C[C@@]3(C)C4C[C@H](OC5OCC(O)C(O)C5O)[C@H]5C(C)(C)[C@@H](OC6OCC(O)C(O)C6OC6OCC(O)C(O)C6O)CC[C@@]56C[C@@]46CC[C@]23C)O1 (some centres undefined): > 100 µM (inactive)
COc1ccc(/N=C2\C(=N/c3ccc(OC)cc3)N(S(=O)(=O)c3ccccc3)C(=S)N2c2ccccc2)cc1: > 100 µM (inactive)

###

test system: CAKI-1; assay: NCI tumour cell line growth inhibition, 48 h
Calls of active or inactive are those of the source. Cut-off read from the data, not from the text of the source: active = GI50 up to about 1.1 µM and inactive = higher.
# GI50 values compiled below
observable: GI50

[N-]=[N+]=NCC(=O)c1cnc(O)nc1O: > 100 µM (inactive)
COC(=O)C([C@H]1CC[C@H](OCc2ccccc2)[C@@]1(O)COCc1ccccc1)C(C)(O)CCc1ccccc1 (some centres not stated): 57.9 µM (inactive)
COc1ccc(/N=C2\C(=N/c3ccc(OC)cc3)N(S(=O)(=O)c3ccccc3)C(=S)N2c2ccccc2)cc1: > 100 µM (inactive)
COc1cccc(C2CC(C)(O)Oc3cc4c(cc32)OCO4)c1 (configuration not stated): 29 µM (inactive)
CCCCCC1CC=CC(=O)O1 (configuration not stated): 3.72 µM (inactive)
O=C1CCC2(c3ccccc3)Nc3ncccc3N12 (configuration not stated): > 100 µM (inactive)
CC(=O)NC(C)c1ccc(/N=N/N2CCCC2)cc1 (configuration not stated): > 100 µM (inactive)
N#Cc1c(-c2ccccc2)cc(-c2ccc(Cl)cc2)[nH]c1=S: 51.4 µM (inactive)
CN(CCc1ccc(Br)cc1)CCN1CCCCC1: 43.2 µM (inactive)
O=C(c1ccccc1)c1nc2ccc(Cl)cc2cc1C(Br)Br: 0.552 µM (active)
Nc1cc(O)c2c(c1O)C(=O)C=CC2=O: 18.6 µM (inactive)
CC(=O)OCC1OC(OC2CC3C(C)(C)C(=O)CC[C@]3(C)C3CC[C@]45C[C@]4(CCC5[C@@H](C)CC(O)C(O)C(C)(C)O)[C@]23C)C(O)C(O)C1O (some centres not stated): 17.1 µM (inactive)

###

test system: SF-268; test: NCI tumour cell line growth inhibition, 48 h
Calls of active or inactive are those of the source. Cut-off read from the data, not from the text of the source: active = GI50 up to about 1.1 µM and inactive = higher.
Reported values of GI50 for individual entries
observable: GI50

C=C(C)C(=O)OC1CC2(C)OC2CC(OC(C)=O)/C(C)=C/C2OC(=O)C(=C)C21 (centres undefined): 2.12 µM (inactive)
CCCc1c(O)nc(Nc2nc3ccccc3[nH]2)[nH]c1=O: > 100 µM (inactive)
CCn1c2ccccc2n2c(=O)c3c(c(C#N)c12)CCCC3: > 100 µM (inactive)
Clc1ccc(/N=c2\oc3ccccc3cc2-c2nc3ccccc3[nH]2)c(Cl)c1: 24.2 µM (inactive)
O=C(NC1C2CC3CC(C2)CC1C3)c1ccncn1 (centres undefined): > 100 µM (inactive)
Cc1cccc2c1nc1n2C(=O)c2ccccc2-1: > 100 µM (inactive)
O=C(O)c1c(-c2c3ccc(=O)cc-3oc3cc(O)ccc23)cc2ccccc2c1-c1ccccc1: > 100 µM (inactive)
O=C1/C(=C/c2ccccc2)CCc2ccc(Cl)nc21: 12.1 µM (inactive)
COc1cccc(/C=C2\CCC(C)(CN(C)C)C2=O)c1 (centres undefined): > 100 µM (inactive)
Oc1cccc(-c2cn3cc(Cl)ccc3n2)c1: 55.1 µM (inactive)
CC1(C)CC[C@]2(C(=O)O)CC[C@]3(C)C(=CC[C@@H]4[C@@]5(C)CC[C@H](OC6OC(CO)C(O)C(O)C6OC6OC(CO)C(O)C(O)C6O)C(C)(C)[C@@H]5CC[C@]43C)[C@@H]2C1 (some centres undefined): 17.2 µM (inactive)
CCOc1ccccc1NC(=O)CC1Sc2ccccc2NC1=O (centres undefined): > 100 µM (inactive)
C=CCN1C(=O)CC2[C@@H]3CCc4cc(O)ccc4C3CC[C@]2(C)C1=O (some centres undefined): > 10 µM (inactive)
COC12C=CC(CC1)C1C(=O)c3c(C)c(C)n(C)c3C(=O)C12 (centres undefined): > 100 µM (inactive)
